target: TvDAAO (recombinant His-tagged D-amino acid oxidase from Trigonopsis variabilis) (Trigonopsis variabilis); assay: biochemical
Sequence (Q99042 whole entry): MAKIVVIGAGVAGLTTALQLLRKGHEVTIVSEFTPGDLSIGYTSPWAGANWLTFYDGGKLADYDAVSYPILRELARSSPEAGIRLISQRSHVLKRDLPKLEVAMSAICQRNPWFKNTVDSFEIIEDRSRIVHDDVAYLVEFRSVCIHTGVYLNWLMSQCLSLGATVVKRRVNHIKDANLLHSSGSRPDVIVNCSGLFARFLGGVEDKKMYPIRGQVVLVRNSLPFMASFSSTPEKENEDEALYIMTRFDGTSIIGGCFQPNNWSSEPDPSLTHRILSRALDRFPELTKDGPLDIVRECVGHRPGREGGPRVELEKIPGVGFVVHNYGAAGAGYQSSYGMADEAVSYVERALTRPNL
recorded-metric: Ki (mM)
Write it as a number; the unit mM goes unstated.

Task: Fill in the blank: the reported Ki of Cl [NaCl] is ____.
Result: 85

Measured values drawn from paper PMC3057018 for this set.
